Value source: paper PMC5490406

target: human active MMP-2 (Homo sapiens, UniProt P08253); assay: fluorometric in vitro MMP inhibition assay, MMP-2; format: biochemical; conditions: IC50 MMP-2, mean ± SD of three assays
Sequence (P08253 110-660): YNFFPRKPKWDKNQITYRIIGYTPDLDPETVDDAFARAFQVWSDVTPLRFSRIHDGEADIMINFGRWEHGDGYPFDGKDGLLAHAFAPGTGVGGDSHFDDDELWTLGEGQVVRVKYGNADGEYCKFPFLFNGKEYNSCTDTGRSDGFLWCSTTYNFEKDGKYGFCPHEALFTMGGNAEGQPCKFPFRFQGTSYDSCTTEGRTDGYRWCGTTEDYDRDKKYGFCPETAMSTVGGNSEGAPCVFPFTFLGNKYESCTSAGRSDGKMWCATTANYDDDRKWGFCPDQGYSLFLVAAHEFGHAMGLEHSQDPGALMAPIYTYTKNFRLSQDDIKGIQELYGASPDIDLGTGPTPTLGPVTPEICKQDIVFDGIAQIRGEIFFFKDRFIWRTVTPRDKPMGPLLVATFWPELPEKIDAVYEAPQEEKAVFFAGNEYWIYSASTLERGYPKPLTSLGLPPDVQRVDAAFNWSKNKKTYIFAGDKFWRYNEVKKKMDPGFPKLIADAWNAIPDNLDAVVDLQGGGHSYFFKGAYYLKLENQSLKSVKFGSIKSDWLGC
property-name: pIC50
Give bare numbers, as −log10 of the molar value.

See these solved cases before continuing.
Form field pIC50, entry O=C1NC(=O)C(c2ccc(I)cc2)(N2CCN(CCO)CC2)C(=O)N1 : 8.00

Form field pIC50, entry O=C(O)CCN1CCN(C2(c3ccc(Oc4ccc(I)cc4)cc3)C(=O)NC(=O)NC2=O)CC1 : 7.54

Form field pIC50, entry O=C1NC(=O)C(c2ccc(O)c(I)c2)(N2CCN(CCO)CC2)C(=O)N1 : 6.17

List reported pIC50 for each of these compounds:
1. O=C1NC(=O)C(c2ccc(Oc3ccc(I)cc3)cc2)(N2CCN(CCOCCOCCOCCF)CC2)C(=O)N1
2. O=C(O)CCN1CCN(C2(c3ccc(I)cc3)C(=O)NC(=O)NC2=O)CC1

Solution:
1. 7.64
2. 5.92

* * *

Provide the recorded pIC50 for the entries that follow.
molecular target: human active MMP-2 (Homo sapiens); test: fluorometric in vitro MMP inhibition assay, MMP-2; assay type: biochemical; settings: IC50 MMP-2 (range given jointly for MMP-2 and -9), summary of Table 1
pIC50: −log10 of the molar value.

Form field pIC50, entry O=C(O)CCN1CCN(C2(c3ccc(I)cc3)C(=O)NC(=O)NC2=O)CC1 [5b] : 5.80 to 6.17

// below: pIC50 requested for another molecule
Form field pIC50, entry O=C1NC(=O)C(c2ccc(O)c(I)c2)(N2CCN(CCO)CC2)C(=O)N1 [compound 6] : 5.80 to 6.17
